Where do these numbers come from? They come from patent US20110318339A1.

For each of the binders below, state its ELISA absorbance at 450 nm.
- TARGET OR SYSTEM: T1, recombinant human DLL4 (Cat# 1506-D4/CF, R&D Systems) (human, UniProt Q9NR61 27-529)
- T1 construct: Bought protein; also called hDLL4; rHuman DLL4
- EXPERIMENT DESCRIPTION: ELISA, DLL4 coated, Fab 50 nM
Numeric answer only, unit A450 assumed.

What ELISA absorbance at 450 nm value was documented for this binder, Fab VH5-51_IGHD5-18*01>3_IGHJ4*01 G100K/G104T G24T/S28R/G35V & V3-4_IGLJ1*01 V91L/S96P S52T (Fab, V domains shown, Fab made in E. coli: VH on CH1 with His6 and Flag tags (Plasmid A), VL on lambda CL (Plasmid E); also called H: KT TRV & L: LP S52T) VH: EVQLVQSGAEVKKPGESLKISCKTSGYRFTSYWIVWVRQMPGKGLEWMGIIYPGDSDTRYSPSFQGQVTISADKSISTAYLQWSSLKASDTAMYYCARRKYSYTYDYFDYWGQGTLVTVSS VL: QTVVTQEPSFSVSPGGTVTLTCGLSSGSVSTSYYPSWYQQTPGQAPRTLIYTTNTRSSGVPDRFSGSILGNKAALTITGAQADDESDYYCLLYMGPGISYVFGTGTKVTVL ?
0.79

Same again, this time with Fab VH5-51_IGHD5-18*01>3_IGHJ4*01 G100K/G104T G24T/S28R/G35V & V3-4_IGLJ1*01 (Fab, V domains shown, Fab made in E. coli: VH on CH1 with His6 and Flag tags (Plasmid A), VL on lambda CL (Plasmid E); also called H: KT TRV & L: wt) VH: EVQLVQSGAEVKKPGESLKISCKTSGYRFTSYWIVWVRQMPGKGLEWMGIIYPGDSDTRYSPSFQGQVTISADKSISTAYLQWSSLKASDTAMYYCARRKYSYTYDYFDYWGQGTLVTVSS VL: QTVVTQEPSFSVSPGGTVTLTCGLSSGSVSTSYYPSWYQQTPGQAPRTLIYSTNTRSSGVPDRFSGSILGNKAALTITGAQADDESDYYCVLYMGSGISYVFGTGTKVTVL
0.32

Now the same for Fab VH5-51_IGHD5-18*01>3_IGHJ4*01 G100K/G104T G24T/S28R/G35V & V3-4_IGLJ1*01 V91L/S96P S52Y (Fab, V domains shown, Fab made in E. coli: VH on CH1 with His6 and Flag tags (Plasmid A), VL on lambda CL (Plasmid E); also called H: KT TRV & L: LP S52Y) VH: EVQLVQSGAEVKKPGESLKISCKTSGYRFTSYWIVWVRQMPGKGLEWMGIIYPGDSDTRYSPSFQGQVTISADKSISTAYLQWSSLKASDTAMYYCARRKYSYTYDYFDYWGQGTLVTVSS VL: QTVVTQEPSFSVSPGGTVTLTCGLSSGSVSTSYYPSWYQQTPGQAPRTLIYYTNTRSSGVPDRFSGSILGNKAALTITGAQADDESDYYCLLYMGPGISYVFGTGTKVTVL
0.72

And for Fab VH5-51_IGHD5-18*01>3_IGHJ4*01 G100K/G104T G24T/S28R/G35V & V3-4_IGLJ1*01 V91L/S96P S52P (Fab, V domains shown, Fab made in E. coli: VH on CH1 with His6 and Flag tags (Plasmid A), VL on lambda CL (Plasmid E); also called H: KT TRV & L: LP S52P) VH: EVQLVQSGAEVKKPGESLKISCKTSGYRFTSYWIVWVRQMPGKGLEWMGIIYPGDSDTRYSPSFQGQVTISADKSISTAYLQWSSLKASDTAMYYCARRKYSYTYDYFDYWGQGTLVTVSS VL: QTVVTQEPSFSVSPGGTVTLTCGLSSGSVSTSYYPSWYQQTPGQAPRTLIYPTNTRSSGVPDRFSGSILGNKAALTITGAQADDESDYYCLLYMGPGISYVFGTGTKVTVL ?
0.79

Moving on to the next binder: Fab VH5-51_IGHD5-18*01>3_IGHJ4*01 G100K/G104T G24T/S28R/G35V & V3-4_IGLJ1*01 V91L/S96P S52V (Fab, V domains shown, Fab made in E. coli: VH on CH1 with His6 and Flag tags (Plasmid A), VL on lambda CL (Plasmid E); also called H: KT TRV & L: LP S52V) VH: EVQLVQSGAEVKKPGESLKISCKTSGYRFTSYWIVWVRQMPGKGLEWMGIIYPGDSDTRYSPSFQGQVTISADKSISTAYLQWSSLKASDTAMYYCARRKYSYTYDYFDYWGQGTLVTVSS VL: QTVVTQEPSFSVSPGGTVTLTCGLSSGSVSTSYYPSWYQQTPGQAPRTLIYVTNTRSSGVPDRFSGSILGNKAALTITGAQADDESDYYCLLYMGPGISYVFGTGTKVTVL
0.74

Can you check Fab VH5-51_IGHD5-18*01>3_IGHJ4*01 G100K/G104T G24T/S28R/G35V & V3-4_IGLJ1*01 V91L/S96P S52N (Fab, V domains shown, Fab made in E. coli: VH on CH1 with His6 and Flag tags (Plasmid A), VL on lambda CL (Plasmid E); also called H: KT TRV & L: LP S52N) VH: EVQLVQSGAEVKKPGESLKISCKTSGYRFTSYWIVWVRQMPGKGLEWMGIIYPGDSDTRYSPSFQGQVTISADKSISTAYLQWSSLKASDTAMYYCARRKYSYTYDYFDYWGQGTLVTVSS VL: QTVVTQEPSFSVSPGGTVTLTCGLSSGSVSTSYYPSWYQQTPGQAPRTLIYNTNTRSSGVPDRFSGSILGNKAALTITGAQADDESDYYCLLYMGPGISYVFGTGTKVTVL next?
0.9

Now this one: Fab VH5-51_IGHD5-18*01>3_IGHJ4*01 & V3-4_IGLJ1*01 (Fab, V domains shown, Fab made in E. coli: VH on CH1 with His6 and Flag tags (Plasmid A), VL on lambda CL (Plasmid E); also called wildtype; parent) VH: EVQLVQSGAEVKKPGESLKISCKGSGYSFTSYWIGWVRQMPGKGLEWMGIIYPGDSDTRYSPSFQGQVTISADKSISTAYLQWSSLKASDTAMYYCARRGYSYGYDYFDYWGQGTLVTVSS VL: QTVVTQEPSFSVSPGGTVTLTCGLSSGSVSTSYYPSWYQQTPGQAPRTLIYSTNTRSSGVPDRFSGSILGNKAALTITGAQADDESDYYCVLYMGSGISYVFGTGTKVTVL
0.16

Similarly, Fab VH5-51_IGHD5-18*01>3_IGHJ4*01 G100K/G104T G24T/S28R/G35V & V3-4_IGLJ1*01 V91L/S96P (Fab, V domains shown, Fab made in E. coli: VH on CH1 with His6 and Flag tags (Plasmid A), VL on lambda CL (Plasmid E); also called H: KT TRV & L: LP) VH: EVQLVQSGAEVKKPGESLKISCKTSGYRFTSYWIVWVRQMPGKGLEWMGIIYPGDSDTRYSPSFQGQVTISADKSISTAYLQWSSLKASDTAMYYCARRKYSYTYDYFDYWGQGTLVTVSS VL: QTVVTQEPSFSVSPGGTVTLTCGLSSGSVSTSYYPSWYQQTPGQAPRTLIYSTNTRSSGVPDRFSGSILGNKAALTITGAQADDESDYYCLLYMGPGISYVFGTGTKVTVL ?
0.81

Here is the next binder: Fab VH5-51_IGHD5-18*01>3_IGHJ4*01 G100K/G104T G24T/S28R/G35V & V3-4_IGLJ1*01 V91L/S96P S52L (Fab, V domains shown, Fab made in E. coli: VH on CH1 with His6 and Flag tags (Plasmid A), VL on lambda CL (Plasmid E); also called H: KT TRV & L: LP S52L) VH: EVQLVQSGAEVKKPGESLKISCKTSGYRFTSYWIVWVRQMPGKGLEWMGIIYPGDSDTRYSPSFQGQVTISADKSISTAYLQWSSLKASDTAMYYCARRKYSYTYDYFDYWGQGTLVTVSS VL: QTVVTQEPSFSVSPGGTVTLTCGLSSGSVSTSYYPSWYQQTPGQAPRTLIYLTNTRSSGVPDRFSGSILGNKAALTITGAQADDESDYYCLLYMGPGISYVFGTGTKVTVL
0.78

Repeat with Fab VH5-51_IGHD5-18*01>3_IGHJ4*01 G100K/G104T G24T/S28R/G35V & V3-4_IGLJ1*01 V91L/S96P S52Q (Fab, V domains shown, Fab made in E. coli: VH on CH1 with His6 and Flag tags (Plasmid A), VL on lambda CL (Plasmid E); also called H: KT TRV & L: LP S52Q) VH: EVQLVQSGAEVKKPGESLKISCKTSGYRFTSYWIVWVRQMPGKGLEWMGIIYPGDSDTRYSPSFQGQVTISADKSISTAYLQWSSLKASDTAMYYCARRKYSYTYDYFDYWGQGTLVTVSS VL: QTVVTQEPSFSVSPGGTVTLTCGLSSGSVSTSYYPSWYQQTPGQAPRTLIYQTNTRSSGVPDRFSGSILGNKAALTITGAQADDESDYYCLLYMGPGISYVFGTGTKVTVL
0.81
